SYSTEM_UNDER_TEST: Voltage-gated inwardly rectifying potassium channel KCNH2 (Homo sapiens)
METHOD_NOTES: qHTS for Inhibitors of KCHN2 3.1: Wildtype qHTS; also: % is scaled to controls: 0 for no effect and ±100 for the full control effect
RUN_CONDITIONS: U2OS, BacMam KCNH2, thallium flux FluxOr; at 1.84 µM
Screen size: about 340,000 compounds; about 1,300 (0.38%) were called active.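 The calls were made as follows: active = maximum activity change below -70%; inconclusive = maximum activity change between -70% and -50%; inactive = maximum activity change above -50%.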 This excerpt belongs to a sample that is enriched for actives.
Would you mind answering with one of these outcomes? label 1 (active), label 0 (inactive)

COCCCNc1nc2c(-c3cccc(C(F)(F)F)c3)nnn2c2ccccc12 ... label 0
O=C(COC(=O)CCc1c[nH]c2ccccc12)Nc1cccc(Cl)c1 ... label 0
c1ccc2c(c1)nnn2-c1ccncc1 ... label 0
CCN(CC)CCN(C(=O)c1ccc2c(c1)CCCC2)c1nc2c(OC)cccc2s1 ... label 0
COC(=O)Cn1nc(-c2ccccc2)c2cc(Cl)ccc21 ... label 0

## Input State the result this test recorded for COc1ccc(CN2CCC(c3nc4ccc(Cl)cc4[nH]3)CC2)cc1 .
## Output label 1

## Input State the result this test recorded for COc1ccc(CN2CCN(Cc3ccc(OC)c(OC)c3OC)CC2)cc1 .
## Output label 0

## Input State the result this test recorded for COc1ccc(-c2ccc3[nH]c4c(c3c2)CCN2C[C@H]3[C@H](C)ON(C)[C@H]3C[C@@H]42)cc1 .
## Output label 0

## Input State the result this test recorded for COC(=O)N(C)C[C@@H]1OCc2cnnn2CCCC(=O)N([C@@H](C)CO)C[C@@H]1C .
## Output label 0

## Input State the result this test recorded for Cc1cc(C)c2cc(C#N)c(N3CCNCC3)nc2c1 .
## Output label 0

## Input State the result this test recorded for COCCCNc1nc2c(-c3cccc(C)c3)nnn2c2ccc(Cl)cc12 .
## Output label 1

====

SYSTEM_UNDER_TEST: Voltage-gated inwardly rectifying potassium channel KCNH2 (Homo sapiens) (UniProt Q12809)
Sequence (Q12809 whole entry, looked up): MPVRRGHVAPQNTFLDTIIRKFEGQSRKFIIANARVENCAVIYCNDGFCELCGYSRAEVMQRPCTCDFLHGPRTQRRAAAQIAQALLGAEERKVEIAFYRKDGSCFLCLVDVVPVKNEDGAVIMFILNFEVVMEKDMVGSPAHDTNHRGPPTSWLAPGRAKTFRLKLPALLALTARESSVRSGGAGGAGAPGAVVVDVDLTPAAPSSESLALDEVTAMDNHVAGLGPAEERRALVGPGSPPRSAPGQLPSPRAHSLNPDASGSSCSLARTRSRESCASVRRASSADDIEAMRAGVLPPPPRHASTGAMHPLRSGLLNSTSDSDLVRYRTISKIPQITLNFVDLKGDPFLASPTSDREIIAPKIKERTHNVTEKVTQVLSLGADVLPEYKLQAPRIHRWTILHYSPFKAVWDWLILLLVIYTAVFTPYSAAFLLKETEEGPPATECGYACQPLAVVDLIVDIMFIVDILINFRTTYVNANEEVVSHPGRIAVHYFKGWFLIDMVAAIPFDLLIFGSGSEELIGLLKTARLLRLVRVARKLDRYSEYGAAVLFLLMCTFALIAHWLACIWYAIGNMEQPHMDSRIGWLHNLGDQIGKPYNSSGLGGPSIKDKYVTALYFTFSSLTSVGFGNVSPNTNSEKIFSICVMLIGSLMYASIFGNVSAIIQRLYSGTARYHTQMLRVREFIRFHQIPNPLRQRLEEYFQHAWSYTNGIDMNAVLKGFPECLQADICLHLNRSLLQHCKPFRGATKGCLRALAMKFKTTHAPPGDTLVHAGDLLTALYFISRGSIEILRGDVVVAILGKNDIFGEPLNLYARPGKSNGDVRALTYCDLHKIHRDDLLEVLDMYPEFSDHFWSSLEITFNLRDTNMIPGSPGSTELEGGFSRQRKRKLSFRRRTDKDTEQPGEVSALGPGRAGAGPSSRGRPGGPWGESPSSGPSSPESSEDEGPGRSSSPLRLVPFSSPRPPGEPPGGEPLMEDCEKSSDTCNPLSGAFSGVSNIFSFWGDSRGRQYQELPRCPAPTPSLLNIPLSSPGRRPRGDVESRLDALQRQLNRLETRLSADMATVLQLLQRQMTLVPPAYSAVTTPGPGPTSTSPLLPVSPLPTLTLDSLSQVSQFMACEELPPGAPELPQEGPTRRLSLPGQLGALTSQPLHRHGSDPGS
METHOD_NOTES: qHTS for Inhibitors of KCHN2 3.1: Wildtype qHTS; also: % is scaled to controls: 0 for no effect and ±100 for the full control effect
RUN_CONDITIONS: U2OS, BacMam KCNH2, thallium flux FluxOr; at 1.84 µM
About 1,300 (0.38%) of roughly 340,000 compounds were called active.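 How the source made its calls: active means maximum activity change below -70%; inconclusive means maximum activity change between -70% and -50%; inactive means maximum activity change above -50%.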 This is one part of a sample in which actives are shown more often than they occur.
Would you mind answering with one of these outcomes? active, inactive

Answered examples (5):
CC1=C(N2CCN(c3ncccn3)CC2)CCC1=O ... inactive
CN(C)/C=C(/C(=O)c1ccccc1)S(=O)(=O)c1ccc(Cl)cc1 ... inactive
Cc1cc(NC(=O)c2ccco2)c(=O)n(Cc2c(F)cccc2Cl)c1 ... inactive
O=C(Nc1cccn(Cc2ccccc2Cl)c1=O)NC1CCCCC1 ... inactive
Clc1ccc(-c2cc(-c3ccccn3)on2)c(Cl)c1 ... active

## Input State the result this test recorded for CCN(CC)C(=O)C1=C(C)N(Cc2ccc(F)cc2)C(=O)C(CC(=O)NCc2cccc3ccccc23)C1 (stereo not given) .
## Output inactive

## Input State the result this test recorded for O=C(C1CCCO1)N1CCN(C(=O)C23CC4CC(CC(C4)C2)C3)CC1 (stereo not given) .
## Output inactive

## Input State the result this test recorded for Cc1ccc([C@H]2C[C@H](O)[C@@H](n3cc(COC(=O)c4ccccc4)nn3)CN2C(=O)C2CCCCC2)cc1 .
## Output inactive

## Input State the result this test recorded for Cn1c(CNC(=O)c2ccccc2F)nnc1SCc1ccc(F)cc1 .
## Output inactive

## Input State the result this test recorded for CCCc1c(C)nc2scc(-c3ccc(Cl)cc3)n2c1=O .
## Output inactive
